- test-protocol: DSSTox (CPDBAS) Carcinogenic Potency Database Summary SingleCellCall Results
- assay-setup: animal chronic carcinogenicity bioassays, CPDB summary call
Activity calls are given as the source filed them.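 How the source made its calls: active means a tumor-causing dose value with its tumor site reported for any sex and species group of a rodent or other animal cancer study; inconclusive means only studies judged inadequate by the national testing program; inactive means tested in at least one study, none positive.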
Possible outcomes: active, inactive

• O=C(Nc1ccc([N+](=O)[O-])cc1Cl)c1cc(Cl)ccc1O = inactive
• C/C=C\c1ccc(OC)cc1 = inactive
• COc1ccc(O)c(C(C)(C)C)c1 = active
• CC(C)OC(=O)Nc1cccc(Cl)c1 = inactive
• CN(N=O)c1ccncc1 = inactive
• ClC(Cl)(Cl)C(Cl)(Cl)Cl = active
• O=NN1CCCC1 = active
• CC(O)CN(CC(O)CO)N=O (stereo not given) = active
• Cc1cccc2ccccc12 = inactive
• CCC[CH2][Sn]([CH2]CCC)([O]C(C)=O)[O]C(C)=O = inactive
• Clc1ccc(-c2ccc(Cl)c(Cl)c2Cl)c(Cl)c1Cl = active
• O=S(=O)(Oc1ccc(Cl)cc1Cl)c1ccccc1 = inactive
• ClC/C=C/CCl = active
• CN(C)C=O = inactive
• COc1cc(CNC(=O)CCCC/C=C/C(C)C)ccc1O = active
